For each of the molecules below, state its inhibition.
- Experimental system: Protein kinase C gamma type (Homo sapiens);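 note: each value is an averaged percent inhibition of the enzyme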
- Stated conditions: at 1 µM
Numbers only here, please. The scale is %.

Problem: // query inhibition value for entry `CCn1c(-c2nonc2N)nc2cncc(C(=O)NCCNC)c21`
Result: 35.3

Problem: Quick check: inhibition of `NC(=O)c1ccc2c(-c3ccnc(NCCCO)n3)c(-c3ccc(F)cc3)nn2c1` ?
Result: 7.09

Problem: Requested read-out: inhibition. Entry: `Cc1cc(O)cc(C)c1/C=C/c1cncc(C(=O)OC(C)(C)C)c1`
Result: 2.62

Problem: Returns the measured inhibition for the input molecule. Input: `CN1CCC(n2cnc(-c3ccc(F)cc3)c2-c2ccnc(NCCO)n2)CC1`
Result: 5.6

Problem: Report inhibition for `CCS(=O)(=O)c1ccc(OC)c(Nc2ncc(-c3cccc(C(C)=O)c3)o2)c1` please.
Result: 1.69

Problem: Quick check: inhibition of `Cc1nnc(-c2cccc(-c3ccc(C(=O)NCC4CC4)cc3)c2)o1` ?
Result: 5.25

Problem: Please look up its inhibition: `COc1cccc(Nc2nccc(-c3cnn4ncccc34)n2)c1`
Result: 9.31

Problem: Please look up its inhibition: `O=C(O[C@H]1CN[C@H](C#Cc2cc3ncnc(Nc4ccc(OCc5cccc(F)c5)c(Cl)c4)c3s2)C1)N1CCOCC1`
Result: 5.45

Problem: Reported inhibition, molecule CC1=C(C(=O)Nc2ccc3[nH]nc(C)c3c2)C(c2ccc(C(F)(F)F)cc2)CC(=O)N1 (stereo not given) : ____
Result: 6.95

Problem: Which inhibition is reported for this molecule? `CN(c1ccc(NC(=O)NCCN2CCOCC2)cc1)c1ccnc(Nc2ccc(CS(C)(=O)=O)cc2)n1`
Result: 4.99

Problem: Requested field: inhibition. Item: `COc1cc(Nc2ncc(-c3ccccc3)o2)cc(OC)c1`
Result: 2.55

Problem: Quick check: inhibition of `CNC(=O)c1ncccc1Nc1nc(Nc2cc3c(cc2OC)CCCN3C(=O)CN(C)C)nc2[nH]ccc12` ?
Result: 20.5

Problem: Which inhibition is listed for `NS(=O)(=O)c1ccc(N/N=C2\C(=O)Nc3cccc(CCc4ccncc4)c32)cc1` ?
Result: -0.16

Problem: I have this molecule here, `Cc1cc(O)cc(C)c1/C=C/c1cncc(C(N)=O)c1` , and I need its recorded inhibition.
Result: 2.79

Problem: Which value of inhibition has been reported for `COc1cccc(-n2ncc3c(N/N=C/c4ccc(C(=O)NCCN(C)C)cc4)ncnc32)c1` in the records?
Result: 4.05

Problem: Given the entry `COc1ccc2ncn(-c3cc(O[C@H](C)c4ccccc4C(F)(F)F)c(C(N)=O)s3)c2c1` , report its measured inhibition.
Result: 3.02

Problem: Quick check: inhibition of `CN(C)CCNC(=O)Nc1ccc(N(C)c2ccnc(Nc3ccc(CS(C)(=O)=O)cc3)n2)cc1` ?
Result: 3.46

Problem: Return reported inhibition; argument: `NS(=O)(=O)c1cccc(N/C=C2\C(=O)Nc3ccccc32)c1`
Result: 3.27

Problem: // returns reported inhibition for input `O=C(Nc1n[nH]c2nnc(-c3cccnc3)cc12)C1CC1`
Result: 2.11

Problem: Which inhibition value is on record for `Fc1ccc(Nc2nccc(-c3c(-c4ccc(C(F)(F)F)cc4)nn4ncccc34)n2)cc1F` ?
Result: 4.39
